- Tested on: Staphylococcus aureus
- Protocol Details: Antibacterial activity against Staphylococcus aureus MRSA ATCC 43300 (CO-ADD:GP_020); MIC in CAMBH media using NBS plates, by Resazurin F(560/590)
- Type: functional
- Condition: Concentration 20 uM, ASSAY_TEST Inhibition of Bacterial Growth, detection method Resazurin, Fluorescence (ex560/em590), MEDIA CAMHB, plate type 384well, CORNING #3640, time 18 hr
Entry flag: Fulfilled if Inhibition reaches 10%; Not fulfilled if it does not.

These solved cases illustrate the format of a correct answer.
O=C(CN1CCOCC1)N1CCOCC1 = Fulfilled
COc1cc(CC(=O)C(=O)O)oc(=O)c1 = Fulfilled
Cc1cc(C)n2c(C)nnc2c1 = Not fulfilled

Query: Given CCOC(=O)CC(=O)NC(C)(C)CCCCC(C)(C)NC(=O)CC(=O)OCC , state whether its Inhibition is at least 10%.
Response: Not fulfilled

Query: Exam item: decide whether the reported Inhibition for O=[N+]([O-])c1ccc(-c2ncc(-c3ccc(Br)cc3)o2)cc1 is at least 10%.
Response: Not fulfilled
